Assay: Compound stability in human liver microsomes (Example 16, design as Example 15)
Assay type: in vitro ADME
Details: pooled human liver microsomes, pH 7.4; human liver microsomes 0.5 mg/mL, 1 μM test compound
// values below are reported half-life at 1 μM
Output spec: scalar in h, unitless text.

Recorded half-life at 1 μM, per entry:
[2H]C([2H])([2H])OC([2H])([2H])COc1cc2ncnc(Nc3cccc(Cl)c3)c2cc1OCC([2H])([2H])OC([2H])([2H])[2H] [Compound 106]: 1.54
[2H]C([2H])([2H])OC([2H])([2H])COc1cc2ncnc(Nc3cccc(Br)c3)c2cc1OCC([2H])([2H])OC([2H])([2H])[2H] [Compound 105]: 1.18

Moving on to the next compound.
Quote half-life at 1 μM reported for C#Cc1cccc(Nc2ncnc3cc(OCCOC)c(OCCOC)cc23)c1 [Erlotinib, reference compound] please.
0.997
